# tgt: human α1G T-type channels (Homo sapiens, UniProt O43497)
# Construct: expressed in transfected cells; host or cells: HEK 293
# Sequence (O43497 whole entry): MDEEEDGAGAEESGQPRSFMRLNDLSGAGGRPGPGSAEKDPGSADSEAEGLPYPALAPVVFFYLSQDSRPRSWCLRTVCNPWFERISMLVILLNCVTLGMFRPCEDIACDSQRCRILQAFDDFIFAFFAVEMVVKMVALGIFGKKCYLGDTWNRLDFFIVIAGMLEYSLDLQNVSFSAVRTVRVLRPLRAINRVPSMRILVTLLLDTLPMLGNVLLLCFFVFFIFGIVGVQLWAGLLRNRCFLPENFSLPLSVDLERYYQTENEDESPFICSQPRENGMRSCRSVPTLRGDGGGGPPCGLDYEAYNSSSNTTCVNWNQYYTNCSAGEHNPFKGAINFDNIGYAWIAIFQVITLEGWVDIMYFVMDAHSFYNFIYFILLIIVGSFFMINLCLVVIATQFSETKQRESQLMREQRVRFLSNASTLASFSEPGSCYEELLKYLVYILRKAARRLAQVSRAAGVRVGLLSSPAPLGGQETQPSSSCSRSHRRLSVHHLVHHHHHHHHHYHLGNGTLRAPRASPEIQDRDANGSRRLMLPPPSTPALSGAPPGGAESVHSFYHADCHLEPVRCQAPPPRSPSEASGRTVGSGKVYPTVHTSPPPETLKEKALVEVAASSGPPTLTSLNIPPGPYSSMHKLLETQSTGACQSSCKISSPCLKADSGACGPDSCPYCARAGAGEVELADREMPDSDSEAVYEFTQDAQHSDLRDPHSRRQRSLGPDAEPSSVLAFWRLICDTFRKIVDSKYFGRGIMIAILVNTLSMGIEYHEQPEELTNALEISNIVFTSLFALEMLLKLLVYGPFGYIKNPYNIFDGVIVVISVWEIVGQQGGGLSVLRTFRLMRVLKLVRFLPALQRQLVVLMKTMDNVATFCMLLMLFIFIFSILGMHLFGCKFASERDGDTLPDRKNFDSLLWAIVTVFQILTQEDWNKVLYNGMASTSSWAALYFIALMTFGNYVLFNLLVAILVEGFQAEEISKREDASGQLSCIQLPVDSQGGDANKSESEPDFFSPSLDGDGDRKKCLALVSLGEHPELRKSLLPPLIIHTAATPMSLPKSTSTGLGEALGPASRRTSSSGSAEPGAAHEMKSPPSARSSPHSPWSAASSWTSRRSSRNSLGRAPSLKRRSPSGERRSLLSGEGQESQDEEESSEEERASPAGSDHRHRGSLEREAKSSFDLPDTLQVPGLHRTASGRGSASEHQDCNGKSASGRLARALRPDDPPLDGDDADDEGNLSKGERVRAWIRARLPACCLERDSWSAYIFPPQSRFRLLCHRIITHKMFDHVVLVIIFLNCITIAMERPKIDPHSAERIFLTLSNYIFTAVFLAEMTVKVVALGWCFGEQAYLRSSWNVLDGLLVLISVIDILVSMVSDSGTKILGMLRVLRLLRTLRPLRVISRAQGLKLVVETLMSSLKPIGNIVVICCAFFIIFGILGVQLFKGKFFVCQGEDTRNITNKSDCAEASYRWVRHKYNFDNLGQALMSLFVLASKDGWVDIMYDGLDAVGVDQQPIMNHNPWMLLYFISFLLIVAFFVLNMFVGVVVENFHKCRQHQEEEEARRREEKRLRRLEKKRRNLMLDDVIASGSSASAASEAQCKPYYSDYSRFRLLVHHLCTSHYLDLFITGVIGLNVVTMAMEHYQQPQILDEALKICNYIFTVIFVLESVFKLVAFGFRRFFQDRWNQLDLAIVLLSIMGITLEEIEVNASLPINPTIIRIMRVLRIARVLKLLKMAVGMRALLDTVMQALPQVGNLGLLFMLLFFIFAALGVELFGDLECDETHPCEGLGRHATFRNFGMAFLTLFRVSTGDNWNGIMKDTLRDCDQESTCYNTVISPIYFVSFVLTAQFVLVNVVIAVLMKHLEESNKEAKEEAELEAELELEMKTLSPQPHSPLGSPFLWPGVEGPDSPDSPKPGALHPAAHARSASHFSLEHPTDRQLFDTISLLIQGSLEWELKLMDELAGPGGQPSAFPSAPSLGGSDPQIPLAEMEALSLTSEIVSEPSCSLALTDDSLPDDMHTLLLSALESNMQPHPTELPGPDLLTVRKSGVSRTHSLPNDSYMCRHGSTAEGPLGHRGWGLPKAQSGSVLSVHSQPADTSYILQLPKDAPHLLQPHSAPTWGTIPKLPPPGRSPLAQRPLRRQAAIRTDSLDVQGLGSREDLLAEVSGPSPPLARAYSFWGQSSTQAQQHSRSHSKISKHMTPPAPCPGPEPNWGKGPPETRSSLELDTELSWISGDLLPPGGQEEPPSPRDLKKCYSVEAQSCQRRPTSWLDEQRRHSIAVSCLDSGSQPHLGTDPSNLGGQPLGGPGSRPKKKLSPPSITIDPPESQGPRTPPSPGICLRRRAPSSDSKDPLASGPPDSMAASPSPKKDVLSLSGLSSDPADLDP
# experiment: T-type calcium channel block, whole cell patch clamp in HEK cells (α1G)
# Format: cell-based
# measurement setup: HEK cells, patch clamp, mainly non-inactivated protocol; values above 10 μM shown as 10 μM, below 0.30 μM shown as 0.30 μM; read-out: T-type Calcium Channel Block α1G IC50
pIC50: −log10 of the molar value.

{"columns": ["compound", "tgt", "pIC50"],
 "data": [
  ["CCCNC(=O)CN1CCC(CNC(=O)c2cc(OC)cc(OC)c2)CC1 [Compound 448]", "human α1G T-type channels (Homo sapiens, UniProt O43497)", 5.01],
  ["CC(C)S(=O)(=O)NCCN1CCC(CNC(=O)c2cc(Br)cc(Br)c2)CC1 [Compound 319]", "human α1G T-type channels (Homo sapiens, UniProt O43497)", "> 6.52"],
  ["CC(C)(C)NC(=O)CN1CCC(CNC(=O)c2cc(F)cc(C(F)(F)F)c2)CC1 [Compound 376]", "human α1G T-type channels (Homo sapiens, UniProt O43497)", "> 6.52"],
  ["CCC(C)(C)NC(=O)CN1CCC(CNC(=O)c2cc(F)cc(C(F)(F)F)c2)CC1 [Compound 353]", "human α1G T-type channels (Homo sapiens, UniProt O43497)", "> 6.52"],
  ["CC(C)S(=O)(=O)NC(CN1CCC(CC(=O)NCCc2c[nH]c3ccc(F)cc23)CC1)C(C)(C)C (centres unmarked) [Compound 206]", "human α1G T-type channels (Homo sapiens, UniProt O43497)", "< 5.00"],
  ["O=C(NCC1CCN(C[C@@H]2CCCN2S(=O)(=O)C2CCCC2)CC1)c1cc(F)cc(C(F)(F)F)c1 [Compound 420]", "human α1G T-type channels (Homo sapiens, UniProt O43497)", 6.15],
  ["CC(C(=O)N1CCC[C@@H]1C(F)(F)F)N1CCC(CNC(=O)c2cc(F)cc(Cl)c2)CC1 (some centres unmarked) [Compound 558]", "human α1G T-type channels (Homo sapiens, UniProt O43497)", "> 6.52"],
  ["COc1cc(OC)cc(C(=O)NCC2CCN(CC(=O)N3CCC[C@H]3C(F)(F)F)CC2)c1 [Compound 466]", "human α1G T-type channels (Homo sapiens, UniProt O43497)", "> 6.52"],
  ["CC(C)(C)C(=O)NCCN1CCC(CNC(=O)c2cccc(C(F)(F)F)c2)CC1 [Compound 296]", "human α1G T-type channels (Homo sapiens, UniProt O43497)", 6.21],
  ["CS(=O)(=O)N1CCC[C@H]1CN1CCC(CNC(=O)c2cc(F)cc(C(F)(F)F)c2)CC1 [Compound 416]", "human α1G T-type channels (Homo sapiens, UniProt O43497)", "< 5.00"],
  ["CC(C)(C)NC(=O)CN1CCC(CNC(=O)c2cc(Cl)cc(C(F)(F)F)c2)CC1 [Compound 380]", "human α1G T-type channels (Homo sapiens, UniProt O43497)", "> 6.52"]
]}

----------
# tgt: human α1H T-type channels (Homo sapiens)
# Construct: expressed in transfected cells; host or cells: HEK 293
# Sequence (O95180 whole entry): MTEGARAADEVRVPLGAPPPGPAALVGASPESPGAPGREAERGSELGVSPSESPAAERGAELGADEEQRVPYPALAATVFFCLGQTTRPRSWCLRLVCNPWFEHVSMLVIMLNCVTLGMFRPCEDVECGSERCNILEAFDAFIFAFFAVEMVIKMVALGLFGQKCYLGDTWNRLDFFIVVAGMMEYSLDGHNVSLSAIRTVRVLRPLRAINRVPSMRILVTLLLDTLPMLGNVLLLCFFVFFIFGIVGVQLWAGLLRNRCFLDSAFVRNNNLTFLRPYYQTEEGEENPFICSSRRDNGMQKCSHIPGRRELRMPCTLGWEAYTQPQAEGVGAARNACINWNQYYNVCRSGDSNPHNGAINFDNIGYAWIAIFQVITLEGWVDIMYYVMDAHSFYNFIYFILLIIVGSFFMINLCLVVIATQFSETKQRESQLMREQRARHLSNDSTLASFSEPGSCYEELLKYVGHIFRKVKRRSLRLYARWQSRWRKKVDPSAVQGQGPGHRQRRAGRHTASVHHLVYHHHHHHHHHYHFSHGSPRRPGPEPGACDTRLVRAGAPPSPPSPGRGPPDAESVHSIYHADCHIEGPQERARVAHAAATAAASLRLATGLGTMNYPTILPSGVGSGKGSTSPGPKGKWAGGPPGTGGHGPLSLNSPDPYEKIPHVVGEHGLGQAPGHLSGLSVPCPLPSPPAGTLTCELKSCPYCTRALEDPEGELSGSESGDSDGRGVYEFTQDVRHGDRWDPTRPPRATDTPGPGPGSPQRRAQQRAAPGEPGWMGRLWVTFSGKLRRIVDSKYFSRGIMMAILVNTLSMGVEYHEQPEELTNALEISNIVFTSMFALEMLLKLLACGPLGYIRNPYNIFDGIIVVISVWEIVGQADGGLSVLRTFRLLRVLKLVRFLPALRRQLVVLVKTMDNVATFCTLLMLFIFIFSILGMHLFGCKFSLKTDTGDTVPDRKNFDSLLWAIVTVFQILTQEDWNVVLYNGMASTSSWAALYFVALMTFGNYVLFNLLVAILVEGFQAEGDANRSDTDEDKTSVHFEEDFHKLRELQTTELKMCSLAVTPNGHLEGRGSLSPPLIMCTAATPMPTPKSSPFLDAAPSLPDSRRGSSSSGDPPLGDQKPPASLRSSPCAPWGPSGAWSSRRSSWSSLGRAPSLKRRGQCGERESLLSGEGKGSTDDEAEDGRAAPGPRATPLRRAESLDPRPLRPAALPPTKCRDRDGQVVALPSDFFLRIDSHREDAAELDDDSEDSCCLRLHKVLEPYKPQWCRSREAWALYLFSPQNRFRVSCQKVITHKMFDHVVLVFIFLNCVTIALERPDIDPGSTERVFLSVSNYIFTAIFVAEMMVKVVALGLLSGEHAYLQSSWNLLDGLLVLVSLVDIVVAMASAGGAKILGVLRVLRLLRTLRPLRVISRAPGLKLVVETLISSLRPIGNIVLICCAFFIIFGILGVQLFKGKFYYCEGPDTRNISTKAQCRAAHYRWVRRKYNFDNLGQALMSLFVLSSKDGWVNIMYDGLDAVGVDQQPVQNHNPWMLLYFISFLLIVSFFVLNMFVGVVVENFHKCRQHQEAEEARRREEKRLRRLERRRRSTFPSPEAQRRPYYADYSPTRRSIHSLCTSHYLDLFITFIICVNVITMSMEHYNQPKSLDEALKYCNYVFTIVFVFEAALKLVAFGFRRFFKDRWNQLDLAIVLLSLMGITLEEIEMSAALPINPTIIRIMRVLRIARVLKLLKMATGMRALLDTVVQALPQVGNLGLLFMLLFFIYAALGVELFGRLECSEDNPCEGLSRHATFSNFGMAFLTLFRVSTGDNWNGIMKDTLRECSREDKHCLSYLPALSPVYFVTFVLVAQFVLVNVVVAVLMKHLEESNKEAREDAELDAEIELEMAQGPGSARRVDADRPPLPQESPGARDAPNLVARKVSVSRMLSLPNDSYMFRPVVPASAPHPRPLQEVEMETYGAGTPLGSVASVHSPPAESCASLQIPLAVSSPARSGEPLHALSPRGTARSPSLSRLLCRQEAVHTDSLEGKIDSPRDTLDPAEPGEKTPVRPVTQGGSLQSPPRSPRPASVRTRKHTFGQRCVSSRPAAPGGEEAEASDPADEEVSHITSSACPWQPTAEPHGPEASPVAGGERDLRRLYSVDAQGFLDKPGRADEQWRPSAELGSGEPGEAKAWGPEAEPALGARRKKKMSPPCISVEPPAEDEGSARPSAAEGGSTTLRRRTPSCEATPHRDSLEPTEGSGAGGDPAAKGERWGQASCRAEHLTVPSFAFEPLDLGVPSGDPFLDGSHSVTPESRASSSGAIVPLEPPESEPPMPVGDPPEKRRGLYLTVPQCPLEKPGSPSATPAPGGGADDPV
# experiment: T-type calcium channel block, whole cell patch clamp in HEK cells (α1H)
# Format: cell-based
# measurement setup: HEK cells, patch clamp, mainly non-inactivated protocol; values above 10 μM shown as 10 μM; read-out: T-type Calcium Channel Block α1H IC50

{"columns": ["compound", "IC50"],
 "data": [
  ["CC(C)(C)C(=O)NCCN1CCC(CNC(=O)/C=C/c2cc(F)cc(F)c2)CC1 [Compound 297]", "> 10 µM"],
  ["CN(CC(=O)N1CCC(CNC(=O)c2cc(F)cc(C(F)(F)F)c2)CC1)C1CCCCC1 [Compound 272]", "> 10 µM"],
  ["COC1CCN(CC(=O)N2CCC(CNC(=O)c3cc(C(F)(F)F)cc(C(F)(F)F)c3)CC2)CC1 [Compound 251]", "> 10 µM"],
  ["CC(C)(C)OC(=O)NCCN1CCC(CNC(=O)c2ccc(Oc3ccccc3)cc2)CC1 [Compound 57]", "> 10 µM"],
  ["CC(C)(C)NC(=O)CN1CCC(CNC(=O)c2cc(C(F)(F)F)ccn2)CC1 [Compound 372]", "> 10 µM"],
  ["CC(C)S(=O)(=O)NCCN1CCC(CNC(=O)c2cccc(Cl)c2)CC1 [Compound 236]", "1.72 µM"],
  ["CCC1CCCCN1C(=O)CN1CCC(CNC(=O)c2cc(C(F)(F)F)cc(C(F)(F)F)c2)CC1 (stereo not shown) [Compound 100]", "0.1 µM"],
  ["CC(C)(C)NC(=O)CN1CCC(CNC(=O)/C=C/c2cc(F)cc(F)c2)CC1 [Compound 369]", "7.01 µM"],
  ["CC1(C(=O)N2CC(N3CCC(CNC(=O)c4cc(F)cc(Cl)c4)CC3)C2)CC1 [Compound 608]", "> 10 µM"],
  ["CC(C(=O)N1CCSC1)N1CCC(CNC(=O)c2cc(F)cc(Cl)c2)CC1 (stereo not shown) [Compound 559]", "> 10 µM"],
  ["CCC(=O)NCCN1CCC(CNC(=O)c2cc(C(F)(F)F)cc(C(F)(F)F)c2)CC1 [Compound 58]", "4.01 µM"],
  ["O=C(NCC1CCN(C(=O)CNCCCN2CCOCC2)CC1)c1cc(C(F)(F)F)cc(C(F)(F)F)c1 [Compound 244]", "> 10 µM"],
  ["O=C(NCC1CCN(C(=O)CN2CCC(F)(F)C2)CC1)c1cc(C(F)(F)F)cc(C(F)(F)F)c1 [Compound 226]", "> 10 µM"]
]}
